Molecular target: human aryl hydrocarbon receptor (AhR) (Homo sapiens, UniProt P35869)
Sequence (P35869 11-848): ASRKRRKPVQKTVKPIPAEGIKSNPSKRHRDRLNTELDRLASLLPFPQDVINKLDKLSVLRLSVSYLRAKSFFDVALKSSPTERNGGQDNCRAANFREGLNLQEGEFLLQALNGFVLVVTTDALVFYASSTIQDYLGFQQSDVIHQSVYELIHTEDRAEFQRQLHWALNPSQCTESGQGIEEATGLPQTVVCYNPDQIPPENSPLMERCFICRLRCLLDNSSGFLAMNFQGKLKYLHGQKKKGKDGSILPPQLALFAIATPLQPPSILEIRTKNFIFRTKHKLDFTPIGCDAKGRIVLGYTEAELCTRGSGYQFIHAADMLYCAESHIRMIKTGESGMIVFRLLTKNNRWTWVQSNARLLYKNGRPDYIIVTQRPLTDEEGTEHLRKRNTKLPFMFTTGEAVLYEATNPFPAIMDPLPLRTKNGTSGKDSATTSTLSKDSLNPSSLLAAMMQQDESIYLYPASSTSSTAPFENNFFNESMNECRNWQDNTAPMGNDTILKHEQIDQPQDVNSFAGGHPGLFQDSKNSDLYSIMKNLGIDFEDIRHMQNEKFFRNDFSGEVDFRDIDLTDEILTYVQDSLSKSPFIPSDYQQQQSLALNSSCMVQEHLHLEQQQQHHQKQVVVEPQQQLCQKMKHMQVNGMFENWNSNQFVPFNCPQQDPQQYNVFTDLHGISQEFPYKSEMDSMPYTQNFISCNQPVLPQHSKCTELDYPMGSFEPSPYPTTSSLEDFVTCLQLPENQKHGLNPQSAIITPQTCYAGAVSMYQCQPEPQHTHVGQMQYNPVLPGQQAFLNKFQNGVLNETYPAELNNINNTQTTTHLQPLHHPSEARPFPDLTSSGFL
Settings: HepG2-AhR Lucia cells
measurement type: AhR agonist character

See these solved cases before continuing.
{"columns": ["compound", "AhR agonist character"],
 "data": [
  ["O=c1cc(-c2ccccc2)oc2ccc3ccccc3c12 [BNF, β-naphthoflavone, reference compound]", "partial agonists"],
  ["O=C(O)c1c[nH]c2ccccc12", "strong agonists"],
  ["c1ccc2c(c1)cc1ccc3cccc4ccc2c1c34 [BaP, benzo[a]pyrene, reference compound]", "partial agonists"],
  ["O=C(O)CCc1c[nH]c2ccccc12", "strong agonists"],
  ["O=Cc1c[nH]c2ccccc12", "strong agonists"]
]}

--- query ---
Exam item: Name the recorded AhR agonist character of the item Cc1c[nH]c2ccccc12 in your answer.
Marked response: partial agonists

====

Biological target: human aryl hydrocarbon receptor (AhR) (Homo sapiens)
Assay: cell-based
measurement type: log10(EC50) (log10 of the value in nM)
Log scale reminder: EC50 in nM, then log10 taken.

// below: answered compounds
{"columns": ["smiles repr", "log10(EC50)"],
 "data": [
  ["O=C(O)CCc1c[nH]c2ccccc12", 2.04],
  ["Cc1c[nH]c2ccccc12", 3.15],
  ["O=C(O)c1c[nH]c2ccccc12", 2.94]
]}

Exam item: State, in one line, measured log10(EC50) of c1ccc2[nH]ccc2c1
Marked response: 4.51

Exam item: Look up and report measured log10(EC50) for this entry: O=Cc1c[nH]c2ccccc12
Marked response: 1.60

====

Test: MTT cytotoxicity, HepaRG
Format: cell-based, human
Settings: human, HepaRG cells (differentiated)
measurement type: EC50 at 24 h (µM)
Response body: numeric value in µM, unit text excluded.

{"columns": ["smiles repr", "EC50 at 24 h, µM"],
 "data": [
  ["O=C(O)c1c[nH]c2ccccc12", 53],
  ["Cc1c[nH]c2ccccc12", 66.4],
  ["O=Cc1c[nH]c2ccccc12", 1.98]
]}

Next:
Exam item: Please list EC50 at 24 h recorded for the molecule O=C(O)Cc1c[nH]c2ccccc12
Marked response: 2.21

====

Measured EC50 at 24 h by item
Test: MTT cytotoxicity, Caco-2
Assay type: cell-based
Conditions: human, Caco-2 cells

Recorded results for 5 molecules are shown here.
{"columns": ["molecule", "reported value"],
 "data": [
  ["c1ccc2[nH]ccc2c1 [Indole, indole]", "> 100 µM"],
  ["O=C(O)CCc1c[nH]c2ccccc12 [IPA, indole-3-propionic acid]", "> 100 µM"],
  ["O=C(O)Cc1c[nH]c2ccccc12 [IAA, indole-3-acetic acid]", "0.52 µM"],
  ["O=Cc1c[nH]c2ccccc12 [I3A, indole-3-aldehyde]", "> 100 µM"],
  ["O=C(O)c1c[nH]c2ccccc12 [I3CA, indole-3-carboxylic acid]", "> 100 µM"]
]}

Next item in the queue.
Exam item: Indicate its recorded EC50 at 24 h; the molecule in question is Cc1c[nH]c2ccccc12 [3-MI, 3-methylindole]
Marked response: > 100 µM

====

Test: MTT cytotoxicity, T47D
Type: cell-based
Settings: human, T47D cells
measurement type: EC50 at 24 h

Worked set:
{"columns": ["smiles repr", "EC50 at 24 h"],
 "data": [
  ["O=Cc1c[nH]c2ccccc12", "> 100 µM"],
  ["O=C(O)c1c[nH]c2ccccc12", "> 100 µM"],
  ["O=C(O)CCc1c[nH]c2ccccc12", "2.02 µM"],
  ["c1ccc2[nH]ccc2c1", "> 100 µM"],
  ["Cc1c[nH]c2ccccc12", "> 100 µM"]
]}

Kindly review the next molecule as well.
Exam item: Using known records, supply EC50 at 24 h for O=C(O)Cc1c[nH]c2ccccc12
Marked response: 1.68 µM

====

Assay: MTT cytotoxicity, MRC-5
Assay type: cell-based
Settings: human, MRC-5 cells
measurement type: EC50 at 24 h (µM)
Reply with just the number (in µM).

These recorded examples may help you get a feel for the data.
{"columns": ["compound", "measurement type", "reported value"],
 "data": [
  ["O=C(O)Cc1c[nH]c2ccccc12 [IAA, indole-3-acetic acid]", "EC50 at 24 h", 2.55],
  ["O=C(O)CCc1c[nH]c2ccccc12 [IPA, indole-3-propionic acid]", "EC50 at 24 h", 0.91],
  ["O=C(O)c1c[nH]c2ccccc12 [I3CA, indole-3-carboxylic acid]", "EC50 at 24 h", 0.52],
  ["O=Cc1c[nH]c2ccccc12 [I3A, indole-3-aldehyde]", "EC50 at 24 h", 49.8]
]}

Exam item: Determine from records and report EC50 at 24 h for Cc1c[nH]c2ccccc12 [3-MI, 3-methylindole]
Marked response: 21.9

====

// values below are reported EC50 at 24 h
Assay: MTT cytotoxicity, MSC
Type: cell-based, human
Details: human, adipose-derived mesenchymal stem cells (MSC)
Express it in nM; write the number only.

{"columns": ["compound", "EC50 at 24 h, nM"],
 "data": [
  ["O=Cc1c[nH]c2ccccc12 [I3A, indole-3-aldehyde]", 1870],
  ["O=C(O)CCc1c[nH]c2ccccc12 [IPA, indole-3-propionic acid]", 400],
  ["Cc1c[nH]c2ccccc12 [3-MI, 3-methylindole]", 330]
]}

Switching to the query record.
Exam item: Using the record for O=C(O)c1c[nH]c2ccccc12 [I3CA, indole-3-carboxylic acid] , state its measured EC50 at 24 h.
Marked response: 640
